System: Liver microsomes
procedure details: Prodrug activation in Wistar rat liver microsome assessed as formation of adefovir at 250 uM after 5 mins
Simple rule here: Activity less than 3 nmol/min/mg is class 1, otherwise class 0.

Use these answered entries as a reference point.
Qu. Does the reported Activity of the following compound sit strictly below 3 nmol/min/mg? Nc1ncnc2c1ncn2CCOCP1(=O)OCCC(c2ccccc2)O1 (stereo not given)
Ans. class 1

Qu. Would you kindly repeat that for Nc1ncnc2c1ncn2CCOCP1(=O)OCCC(c2cccc(Cl)c2)O1 (cis isomer) ?
Ans. class 1

Qu. Again, but for Nc1ncnc2c1ncn2CCOCP1(=O)OCCC(c2cc(F)ccc2F)O1 (stereo not given)
Ans. class 1

Next:
Qu. Is Activity strictly under 3 nmol/min/mg for the entry Nc1ncnc2c1ncn2CCOCP1(=O)OCCC(c2ccc(Cl)cc2Cl)O1 (stereo not given) ?
Ans. class 1

Qu. Try the compound Nc1ncnc2c1ncn2CCOCP1(=O)OCCC(c2ccc(Cl)c(Cl)c2)O1 (stereo not given)
Ans. class 1
